observedProperty: melting point

Some solved entries appear below for comparison.
> print(dat)
                                givensmiles         result
1  CC(C)n1nc(-c2cnc(N)nc2-c2cccc(C(F)(F)F)c2)ccc1=O  164 to 165 °C
2  O=C(OC(=O)c1cn(-c2ccccc2)nc1-c1ccc([N+](=O)[O-])o1)c1cn(-c2ccccc2)nc1-c1ccc([N+](=O)[O-])o1  262 to 264 °C

Moving on to another compound below.
[Q] Which measured melting point value corresponds to CC1=C(O)C(=O)c2ccccc2C1=O ?
[A] 173 to 174 °C

====

Overview of reported melting point across a group of molecules:

Some solved entries appear below for comparison.
> print(dat)
                             molecule  observedproperty         result
1  CCOC(=O)CCCCCn1c(C(=O)O)cc2ccccc21     melting point          62 °C
2              COc1cc2ccccc2cc1C(=O)O     melting point  130 to 132 °C
3                COc1cnc(C(=O)O)cc1Cl     melting point         209 °C

[Q] Which measured melting point value corresponds to C#CC[C@H](c1nc2cc(Cl)ccc2c(=O)n1Nc1ccccc1)N(CCCN)C(=O)c1cc(F)cc(F)c1 ?
[A] 165 to 167 °C

[Q] Which measured melting point value corresponds to CC(=O)N1CCC(NC(=O)Nc2ccc(C(F)(F)F)cc2)CC1 ?
[A] 240 to 248 °C

[Q] Which measured melting point value corresponds to CCNc1nc(C)c(-c2ccnc(Nc3cccc(S(=O)(=O)NCc4ccccc4)c3)n2)s1 ?
[A] 204 to 205 °C

[Q] Which measured melting point value corresponds to CC(C)(C)[Si](C)(C)OC1CCCc2cnc3cc(O)ccc3c21 (centres undefined) ?
[A] 248 to 250 °C

[Q] Which measured melting point value corresponds to N#CCC(c1ccccn1)c1cc(N)cc2c1OCC2 (centres undefined) ?
[A] 143 to 144 °C

[Q] Which measured melting point value corresponds to CCCC[C@H](NC(=O)[C@H](CC(C)C)NC(=O)c1c(F)cccc1F)C(=O)CSCc1ccco1 ?
[A] 116 °C

[Q] Which measured melting point value corresponds to CCOC(=O)CCCn1c(=O)n(CCN2CCN(c3ccccc3OC)CC2)c(=O)c2cscc21 ?
[A] 108 to 110 °C

[Q] Which measured melting point value corresponds to CC(C)(C)c1cc(Nc2ccccc2C#N)cc(C(C)(C)C)c1O ?
[A] 172 °C

[Q] Which measured melting point value corresponds to CCCCc1cc(C#N)ncc1C(=O)O ?
[A] 267 to 268 °C

[Q] Which measured melting point value corresponds to COc1cc(Nc2c(C#N)cnc3cc(-c4ccc(CN5CCCCC5)cc4)sc23)c(Cl)cc1Cl ?
[A] 218 to 220 °C

[Q] Which measured melting point value corresponds to CCN(CC)C(=S)Oc1cc(Br)cc(Br)c1 ?
[A] 72 to 74 °C

[Q] Which measured melting point value corresponds to COCc1c(C(=O)c2ccccc2)ncc2[nH]c3ccc(Oc4ccc(Br)cn4)cc3c12 ?
[A] 193 to 194 °C

[Q] Which measured melting point value corresponds to CC(C)OC(=O)C(C)Oc1ncn(-c2ccccc2)n1 (centres undefined) ?
[A] 104 °C

[Q] Which measured melting point value corresponds to CCCOc1ccccc1-c1ccc2c(c1)C=C(C(=O)Nc1ccc(CN(C)C3CCOCC3)cc1)CCS2(=O)=O ?
[A] 190 to 192 °C

[Q] Which measured melting point value corresponds to O=C(O)COc1c(Br)cc(-c2c3ccccc3c(Br)c3oc4ccccc4c23)c(O)c1Br ?
[A] 194 to 240 °C

[Q] Which measured melting point value corresponds to O=C(O)C1CN(CCCS(=O)(=O)O)CCN1 (centres undefined) ?
[A] 190 to 191 °C
